# MEASUREMENT_TARGET: T1, recombinant human interleukin-18 (human, UniProt Q14116 37-193)
# T1 construct: Commercially available recombinant human IL-18; also called IL-18; free IL-18
# T1 sequence (looked up): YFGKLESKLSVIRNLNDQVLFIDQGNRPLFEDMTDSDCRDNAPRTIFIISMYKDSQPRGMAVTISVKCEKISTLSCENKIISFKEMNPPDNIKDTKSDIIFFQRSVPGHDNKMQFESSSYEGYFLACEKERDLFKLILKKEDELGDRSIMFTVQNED
# TEST_NAME: titration of antibody with a defined IL-18 molarity; KD from EC50 by Law of Mass Action; mean
This section presents binders with their documented Kd values.
Give the value in pM but do not write pM after it.

1. Antibody 109A6 (antibody, V domains shown, Mouse hybridoma monoclonal antibody) VH: EVQLQQSGAELVKPGASVKLSCTASGFKIKDTYIHWVIQRPAQGLEWIGRIDPANGNTIYGSKFQGKATLTADTSSNTAYIHLSSLTSGDSAVYYCAGYVWFAYWGQGTLVTVSA VL: DVVMTQVPLSLPVSLGDQASISCRSSQRLVHSNGNTYLHWFLQKPGQSPKLLIYTVSNRFSGVPDRFSGSGSGTDFTLKISRVEAEDLGVYFCSQSTLVPWTFGGGTKLEIK :: 10

Turning now to a further record.
Documented Kd of Antibody 132H4 (antibody, V domains shown, Mouse hybridoma monoclonal antibody) VH: EVKLVESGGGLVKPGGSLKLSCAASGFTFSNYAMSWVRQNPAKRLEWVATISSGGANIYYPDSVKGRFIISRDNARNTLYLQMSSLRSEDTAMYYCARGDYFNHFWFAYWGQGTLVTVSA VL: DVLMTQTPLSLPVSLGDQASISCRSSQSIVHSNGNTYLEWYLQKPGQSPKFLIYKVSNRFSGVPDRFSGSGSGTDFTLKINRVEAEDLGIYYCFQGSHVPWTFGGGTKLEIK : 5
